- EXPERIMENTAL DETAILS: in vitro
- TEST CONTEXT: human, Caco-2
- Experimental: To verify the Caco-2 cell monolayers were properly formed, aliquots of the cell buffers were analyzed by fluorescence to determine the transport of the impermeable dye Lucifer Yellow.
ASSAY READOUT: Papp B→A (×10⁻⁶ cm/s)
Reply numerically in ×10⁻⁶ cm/s, unit not repeated.

Prompt: Give its Papp B→A value. Item: COCCc1ccc(OCC(O)CNC(C)C)cc1 (stereo not shown) [metoprolol]
Completion: 27.2
